Kindly supply the reported GI50 values for the records listed here.
System: NCI-H23 lung
Assay: NCI tumour cell line growth inhibition, 48 h

Examples from the recorded data:
Please report the recorded GI50 for CCCN1C(=O)NC(=O)C(CC)(N2C(=O)c3c(F)c(F)c(F)c(F)c3C2=O)C1=O (stereo unspecified) .
2.17 µM

// GI50 lookup, key: COc1cccc(-c2nc3cc(NC(=O)c4ccc(Cl)c(C#N)c4)ccc3o2)c1
1.69 µM

Please report the recorded GI50 for CO/N=C(\COc1ccc2c(c1)[nH]c1ccccc12)c1ccc(OC)cc1 .
32.2 µM

Which GI50 is listed for Nc1nc2ccc(-c3nc4ccc5[nH]ncc5c4c4c3CCC4)cc2s1 ?
0.546 µM

// batch mode: one GI50 value per listed entry
1. O=C(Nc1cccc(Cl)c1)Nn1cnnc1
2. Cc1ccc2cnc(N)c(C#Cc3cc(C(=O)Nc4ccc(CN5CCN(C)CC5)c(C(F)(F)F)c4)cnc3C)c2c1

1. > 50 µM
2. 0.727 µM

###

Field: GI50. Provide a value for each of the compounds that follow.
Tested on: A549 NSCLC
Test: NCI tumour cell line growth inhibition, 48 h

Record request: GI50 value, item COc1ccc(C2=Nn3c(nnc3-c3cc(Cl)cc(Cl)c3Cl)SC2)cc1
0.631 µM

Find the recorded GI50 belonging to CC(=O)c1c(C(F)(F)F)n([O-])c2ccccc2[n+]1=O and report it.
2.28 µM

Fill in the blank: the reported GI50 of c1cc[c]([Sn][c]2ccccc2)cc1 is ____.
21.5 µM

Look up GI50 for this compound: Clc1ccc(-c2cn3ccnc3c(-c3ccc(Cl)cc3)n2)cc1
8.31 µM

What does the record list as GI50 for CCN1C(=O)N(CC)C2C1NN=c1s/c(=C\c3ccc(Cl)cc3Cl)c(=O)n12 (configuration not stated) ?
0.0369 µM

Fill in: GI50 of CCCCN(CCCC)Cc1cc(Nc2ccnc3cc(Cl)ccc23)ccc1O is ___
19.8 µM

Fill in the blank: the reported GI50 of O=C(c1ccc2ccccc2c1)c1c(C(F)(F)F)n([O-])c2ccc(C(F)(F)F)cc2[n+]1=O is ____.
1.68 µM

Please report the recorded GI50 for N#CC(C#N)=C/C=C(\Cl)c1ccc(Cl)cc1 .
17.4 µM

I have this compound here, COc1cccc(-c2nc3cc(NC(=O)c4ccc(Cl)c(C#N)c4)ccc3o2)c1 , and I need its recorded GI50.
1.88 µM

Which measured GI50 value corresponds to O=C(NCC1CC1)c1ccc(-c2cccc(C(=O)NC3CC3)c2)cc1 ?
> 25 µM

Batch: GI50 for all items listed.
1. c1ccc(C2ONC3=NCCN32)cc1 (configuration not stated)
2. Cc1c2cnccc2c(C)c2c1c1cc(C#N)ccc1n2C

["51.1 µM", "0.1 µM"]

###

Tested on: BT-549 breast
Experiment: NCI tumour cell line growth inhibition, 48 h
For each record, write down the corresponding TGI.
One number for each entry, in µM.

Guide cases for TGI, answers given:
Which TGI reading was recorded for the molecule COC(=O)C1(NC(=O)C(CC(=O)OCc2ccccc2)NC(=O)OCc2ccccc2)CCCCCC1 (stereo unspecified) ?
61.5

Item CC(=O)O[C@H]1CC(C)(C)C(=C=C/C(C)=C/C=C/C=C/C=C(C)/C=C2C=C(/C=C/[C@@]34O[C@]3(C)C[C@@H](O)CC4(C)C)C(=O)O/2)[C@](C)(O)C1 has what recorded TGI?
8.16

Using the record for COc1cc2c(c3c1c(=O)c1ccccc1n3C)C=CC1(CCCC1)O2 , report its TGI.
25.5

Given the molecule CCSC1=NC2C(N(CC)C(=O)N2CC)N1/N=C/C=C/c1ccccc1[N+](=O)[O-] (stereo unspecified) , what is its reported TGI?
4.23

Quick one: TGI for CCC/C(Cl)=N\OC(=O)Nc1ccc(F)cc1 ?
28.4

Consider the following items and state reported TGI for each.
1. c1ccc(/C(=N/Nc2nc3ccccc3s2)C2CCCCC2)nc1
2. C=CCSC1=N/C(=C\c2ccc(Cl)cc2)C(=O)N1CC=C
3. COc1cccc(N2C(=O)CSC2c2cccc(Oc3ccccc3)c2)c1 (stereo unspecified)
4. CC(N=NNc1ccc(-c2nc3ccccc3[nH]2)cc1)C(=O)O (stereo unspecified)

[35.1, 76.2, 45.6, 57.6]

###

Tested on: RPMI-8226 leukemia
Assay: NCI tumour cell line growth inhibition, 48 h
EXPERIMENTAL_ENDPOINT: TGI

Data request, read-out TGI, for CCOC(=O)Cc1nc2ccc3c(c2[nH]c1=O)C(=O)c1ccccc1C3=O
> 100 µM

Entry Cc1ccc(Nc2nc3[nH]ccc3c(=O)[nH]2)cc1 : reported TGI = ?
> 100 µM

Provide the reported TGI of each entry below, same order.
1. Cn1nc2ccc([N+](=O)[O-])c(Cn3nnc4ccccc43)c2n1
2. O=C(c1ccc2ccccc2c1)c1c(C(F)(F)F)n([O-])c2ccc(C(F)(F)F)cc2[n+]1=O
3. C=CCOC(=O)N1c2ccc(O[Si](C)(C)C(C)(C)C)cc2[C@@]23O[C@@]24[C@@H]1C#C/C=C\C#C[C@]3(O)C(OC)(OC)C[C@@H]4C

1: > 100 µM; 2: 2.88 µM; 3: > 100 µM

Hey, can you go through the list below and give me TGI for every item?
1. CC1=C(C(=O)Nc2ccccc2C)C(c2ccc(Cl)cc2)C(C(=O)Nc2ccccc2C)=C(C)N1
2. CCCCCOc1ccc(C=Nc2ccc(CCc3ccc(N=Cc4ccc(OCCCCC)cc4)cc3)cc2)cc1
3. COc1cc(C2c3c(ccc4ccccc34)C(=O)C3CCC(=O)N32)cc(OC)c1OC (stereo not given)
4. Oc1cc(Cc2ccccc2)c(Cc2ccccc2)cc1O
5. CN1N=CSC12C(=O)N(c1ccccc1)C(=O)N2c1ccccc1 (stereo not given)
6. Cc1c(OC(C)C(=O)O)ccc2c(-c3ccccc3)cc(=O)oc12 (stereo not given)

> 100 µM
> 100 µM
> 50 µM
> 10 µM
> 100 µM
> 100 µM

# batch: return TGI for each of the 5 compounds below
1. CNC(=S)Nc1ccc(OC)c2ccccc12
2. N#CC(N)=Nc1ccccc1
3. CNC(C)(C)Cc1ccc(Cl)cc1
4. N#Cc1c(-c2ccc(Cl)cc2)c2c(nn3c4ccc5ccccc5c4nnc23)[nH]c1=O
5. O=C(O)CCc1nc2c(n1-c1ccccc1)C(=O)c1ccccc1C2=O

> 10 µM
> 100 µM
> 100 µM
> 28.9 µM
> 100 µM

###

Tested on: HCT-15 colon
Assay: NCI tumour cell line growth inhibition, 48 h
EXPERIMENTAL_ENDPOINT: TGI

What does the data say about its TGI? Entry: O=c1[nH]c2nc3ccccc3c(=O)n2/c1=C/c1ccc(Cl)cc1
> 100 µM

Please supply TGI for each of the following items, keeping them in order.
1. O=C(Oc1cccnc1)c1cccnc1Nc1ccnc(C(F)(F)F)c1
2. C=CCC1(C#N)C(=S)NC2=C(C(=O)CC(C)(C)C2)C1c1ccccc1 (configuration not stated)
3. N#CCCN(CCC#N)c1ccc(/C=C2\N=C(c3ccccc3)N(c3ccc(F)cc3)C2=O)cc1
4. CC(=O)c1c(O)c(C)c(O)c(Cc2c(O)c3c(c(C(=O)/C=C/c4ccccc4)c2O)OC(C)(C)C=C3)c1O
5. O=C1C2C3C=C4c5ccccc5N(c5ccccc5)C4(C2C(=O)N1c1ccccc1)C1C(=O)N(c2ccccc2)C(=O)C31 (configuration not stated)
6. O=C1/C(=C/c2ccc([N+](=O)[O-])cc2)CN(C(=O)CCN2CCC(=NO)CC2)C/C1=C\c1ccc([N+](=O)[O-])cc1
7. COc1ccc2nccc(C3=CCC4CCN(C(=O)c5ccccc5)C3C4)c2c1 (configuration not stated)
8. NC(=O)CNC(=O)[C@@H]1CC(OCCC(=O)O)CN1C(=O)C1CCCN1C(=O)OCc1ccccc1 (some centres not stated)

1. > 100 µM
2. > 100 µM
3. > 100 µM
4. 14.3 µM
5. > 100 µM
6. 3.9 µM
7. > 100 µM
8. > 100 µM

Hi! Can you tell me TGI for each of these compounds?
1. c1ccc(-c2nc(-c3ccccn3)nc(-c3ccccn3)n2)nc1
2. COc1ccc2c(c1)C(=O)/C(=C/c1cccc(OCC(=O)c3ccccc3)c1)CC2
3. CN1N=CSC12C(=O)N(c1ccccc1)C(=O)N2c1ccccc1 (configuration not stated)
4. N#C[Se]Cc1cc(-c2ccccc2)n(-c2ccc(S(N)(=O)=O)cc2)n1
5. Oc1cccc(Nc2nc3ccccc3c3occc23)c1

1. > 100 µM
2. > 100 µM
3. > 100 µM
4. 5.55 µM
5. 33.8 µM

Give measured TGI for every item shown.
1. O=c1[nH]/c(=C/c2ccc(OCc3ccccc3)cn2)c(=O)[nH]/c1=C/c1ccccc1
2. C=C1CCC2C3(C)COC(C)(C)OC3CCC2(C)C1C/C=C1/C(=O)OCC1OC(C)=O (configuration not stated)

> 46.4 µM
4.19 µM

Quick request: TGI for each listed item, please.
1. O=C(O)CC(Cc1ccccc1Cl)C(=O)O (configuration not stated)
2. CN(C)CCNC(=O)Cn1ccc(=O)c2cc([N+](=O)[O-])ccc21
3. COc1cccc(N2C(=O)CSC2c2cccc(Oc3ccccc3)c2)c1 (configuration not stated)

["> 100 µM", "> 100 µM", "76.9 µM"]

Data provenance: PubChem BioAssay (NCI)
